The listing below reports pKi for compounds tested on Adenosine receptor A1 (Rattus norvegicus).
Sequence (P25099 whole entry): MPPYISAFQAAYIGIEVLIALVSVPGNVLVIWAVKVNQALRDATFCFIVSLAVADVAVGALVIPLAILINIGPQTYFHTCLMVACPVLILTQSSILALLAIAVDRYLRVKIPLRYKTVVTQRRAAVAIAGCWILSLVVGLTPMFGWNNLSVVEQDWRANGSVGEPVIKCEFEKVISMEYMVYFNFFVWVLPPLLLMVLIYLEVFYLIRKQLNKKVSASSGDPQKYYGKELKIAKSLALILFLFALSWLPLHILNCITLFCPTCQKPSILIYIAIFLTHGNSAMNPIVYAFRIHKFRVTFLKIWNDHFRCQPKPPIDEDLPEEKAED
Lab note: report pKi as minus log10 of the concentration in molar units, number only.

CCNC(=O)[C@@H]1OC(n2cnc3c(NC(=O)Nc4ccc(S(=O)(=O)Nc5ncccn5)cc4)ncnc32)[C@@H](O)[C@H]1O (some centres not stated) : 6.14

Turning now to a further compound:
Find the recorded pKi belonging to CCNC(=O)[C@H]1OC(n2cnc3c(NC(=O)Nc4ccc(S(=O)(=O)Nc5ccccn5)cc4)ncnc32)[C@H](O)[C@@H]1O (some centres not stated) and report it.
6.53
